Tested on: KMS-12-BM myeloma cell line
measurement.protocol: Pim cell assay: phospho-BAD (S112) and total BAD in KMS-12-BM cells
Type: cell-based
conditions: 1 hour and 50 minutes incubation, tris(2,2,2-trifluoroacetate), read-out: KMS-12-BM IC50 IP
Kindly state pIC50 for each of the entries shown.
Give bare numbers, as −log10 of the molar value.

Examples with their reported pIC50 follow.
[[record]]
compound = "C[C@@H]1CCN(c2ccncc2Nc2ncc3ccc(-c4c(F)cccc4F)nn23)C[C@H]1N (single isomer, unassigned) [Example 101, tris(2,2,2-trifluoroacetate)]"
metric_name = "pIC50"
observed = 5.16

[[record]]
compound = "C[C@H]1CC[C@H](N)CN1c1ccncc1Nc1ncc2ccc(-c3c(F)cccc3F)nn12 (single isomer, unassigned) [Example 88, tris(2,2,2-trifluoroacetate)]"
metric_name = "pIC50"
observed = 5.01


For the next question, use this compound.
Memo: C[C@@H]1C[C@H](N)CN(c2ccncc2Nc2ncc3ccc(-c4ccccc4F)nn23)C1 (single isomer, unassigned) [Example 47, tris(2,2,2-trifluoroacetate)] , reported pIC50: 4.99

Hey, just so you know, these numbers are from patent US9187486B2.
